System: MOLT-4 (T-Lymphoblastic Leukemia)
Procedure Text: Bliss excess, mean over the matrix (fraction); higher = more synergy
Value Kind: Bliss excess

INSERT INTO results (compound, measured_number) VALUES
  ('N#Cc1cnc(Nc2cc(NC[C@H]3CNCCO3)c(C(F)(F)F)cn2)cn1 [SRA737] + CCc1c2c(nc3ccc(O)cc13)-c1cc3c(c(=O)n1C2)COC(=O)[C@]3(O)CC [SN-38] (first compound max 10 µM, 7x7, partner max 0.3 µM)', 0.002),
  ('C[C@@H](c1ccc2nccn2c1)n1nnc2ncc(-c3cnn(C)c3)nc21 [Savolitinib] + CC1(C)CCC(CN2CCN(c3ccc(C(=O)NS(=O)(=O)c4ccc(NCC5CCOCC5)c([N+](=O)[O-])c4)c(Oc4cnc5[nH]ccc5c4)c3)CC2)=C(c2ccc(Cl)cc2)C1 [Venetoclax] (first compound max 1 µM, 7x7, partner max 1 µM)', 0.0879),
  ('C[C@@H](Oc1cc(-c2cnn(C3CCNCC3)c2)cnc1N)c1c(Cl)ccc(F)c1Cl [Crizotinib] + CC1=C(C(=CC=C1)Cl)NC(=O)C2=CN=C(S2)NC3=CC(=NC(=N3)C)N4CCN(CC4)CCO [Dasatinib] (first compound max 10 µM, 7x7, partner max 2 µM)', -0.0209),
  ('Cc1c2c(nn1C)CSCc1cc(n(C)n1)CSc1cc(c3ccccc3c1)OCCCc1c(C(=O)O)n(C)c3c-2c(Cl)ccc13 [AZD5991] + Cc1cc2ncnn2cc1Nc1ncc2c(n1)n(C1CCOCC1)c(=O)n2C [AZD7648] (first compound max 1 µM, 7x7, partner max 10 µM)', -0.0072);

---

Catalogue of combination Emax readings, one per entry.
System: MDA-MB-453 (Breast Carcinoma)
Procedure Text: combination Emax (second highest fraction inhibited in the dose matrix, 72 h); higher = more inhibition; extreme values may be limits of the assay
Value Kind: combination Emax

INSERT INTO measurements (molecule, system_name, measured_number) VALUES
  ('N#Cc1cnc(Nc2cc(NC[C@H]3CNCCO3)c(C(F)(F)F)cn2)cn1 [SRA737] + C=CCn1c(=O)c2cnc(Nc3ccc(N4CCN(C)CC4)cc3)nc2n1-c1cccc(C(C)(C)O)n1 [AZD1775] (first compound max 10 µM, partner max 1 µM)', 'MDA-MB-453 (Breast Carcinoma)', 0.667),
  ('C=CCn1c(=O)c2cnc(Nc3ccc(N4CCN(C)CC4)cc3)nc2n1-c1cccc(C(C)(C)O)n1 [AZD1775] + C1CN(CCC1(C(=O)N[C@@H](CCO)C2=CC=C(C=C2)Cl)N)C3=NC=NC4=C3C=CN4 [Capivasertib] (first compound max 3 µM, partner max 3 µM)', 'MDA-MB-453 (Breast Carcinoma)', 0.859),
  ('CC1(C)CCC(CN2CCN(c3ccc(C(=O)NS(=O)(=O)c4ccc(NCC5CCOCC5)c([N+](=O)[O-])c4)c(Oc4cnc5[nH]ccc5c4)c3)CC2)=C(c2ccc(Cl)cc2)C1 [Venetoclax] + CCN(CCO)CCCOc1ccc2c(Nc3cc(CC(=O)Nc4cccc(F)c4)[nH]n3)ncnc2c1 [AZD2811] (first compound max 1 µM, 7x7, partner max 1 µM)', 'MDA-MB-453 (Breast Carcinoma)', 0.211),
  ('CN(CCO)CC[C@H](CSc1ccccc1)Nc1ccc(S(=O)(=O)NC(=O)c2ccc(N3CCC([C@@H](O)c4ccccc4-c4ccc(Cl)cc4)CC3)cc2)cc1S(=O)(=O)C(F)(F)F [AZD4320] + Cn1cnc2c(F)c(Nc3ccc(Br)cc3Cl)c(C(=O)NOCCO)cc21 [Selumetinib] (first compound max 1 µM, 7x7, partner max 3 µM)', 'MDA-MB-453 (Breast Carcinoma)', 0.331),
  ('CC1(C)CCC(CN2CCN(c3ccc(C(=O)NS(=O)(=O)c4ccc(NCC5CCOCC5)c([N+](=O)[O-])c4)c(Oc4cnc5[nH]ccc5c4)c3)CC2)=C(c2ccc(Cl)cc2)C1 [Venetoclax] + C=CCn1c(=O)c2cnc(Nc3ccc(N4CCN(C)CC4)cc3)nc2n1-c1cccc(C(C)(C)O)n1 [AZD1775] (first compound max 1 µM, partner max 1 µM)', 'MDA-MB-453 (Breast Carcinoma)', 0.769),
  ('NC1(C(=O)N[C@@H](CCO)c2ccc(Cl)cc2)CCN(c2ncnc3[nH]ccc23)CC1 [Capivasertib] + COc1nnc2ccc(N3CCC(c4ccc(OCCN5CCN(C)C(=O)[C@H]5C)cc4)CC3)nn12 [AZD5153] (first compound max 10 µM, 7x7, partner max 1 µM)', 'MDA-MB-453 (Breast Carcinoma)', 0.93),
  ('COc1nnc2ccc(N3CCC(c4ccc(OCCN5CCN(C)C(=O)[C@H]5C)cc4)CC3)nn12 [AZD5153] + Cc1c2c(nn1C)CSCc1cc(n(C)n1)CSc1cc(c3ccccc3c1)OCCCc1c(C(=O)O)n(C)c3c-2c(Cl)ccc13 [AZD5991] (first compound max 1 µM, 7x7, partner max 1 µM)', 'MDA-MB-453 (Breast Carcinoma)', 0.953),
  ('C[C@@H](c1ccc2nccn2c1)n1nnc2ncc(-c3cnn(C)c3)nc21 [Savolitinib] + Cc1c2c(nn1C)CSCc1cc(n(C)n1)CSc1cc(c3ccccc3c1)OCCCc1c(C(=O)O)n(C)c3c-2c(Cl)ccc13 [AZD5991] (first compound max 1 µM, 7x7, partner max 1 µM)', 'MDA-MB-453 (Breast Carcinoma)', 0.261),
  ('Cc1nc(Nc2ncc(C(=O)Nc3c(C)cccc3Cl)s2)cc(N2CCN(CCO)CC2)n1 [Dasatinib] + CC(=O)Nc1cccc(-n2c(=O)n(C3CC3)c(=O)c3c(Nc4ccc(I)cc4F)n(C)c(=O)c(C)c32)c1 [Trametinib] (first compound max 2 µM, 7x7, partner max 1 µM)', 'MDA-MB-453 (Breast Carcinoma)', 0.224),
  ('NC1(C(=O)N[C@@H](CCO)c2ccc(Cl)cc2)CCN(c2ncnc3[nH]ccc23)CC1 [Capivasertib] + C[C@@H]1COCCN1C2=NC(=NC(=C2)C3(CC3)[S@](=N)(=O)C)C4=C5C=CNC5=NC=C4 [AZD6738] (first compound max 10 µM, 7x7, partner max 10 µM)', 'MDA-MB-453 (Breast Carcinoma)', 0.706),
  ('O=C(c1cc(Cc2n[nH]c(=O)c3ccccc23)ccc1F)N1CCN(C(=O)C2CC2)CC1 [Olaparib] + CN(CC[C@H](CSC1=CC=CC=C1)NC2=C(C=C(C=C2)S(=O)(=O)NC(=O)C3=CC=C(C=C3)N4CCC(CC4)[C@H](C5=CC=CC=C5C6=CC=C(C=C6)Cl)O)S(=O)(=O)C(F)(F)F)CCO [AZD4320] (first compound max 10 µM, 7x7, partner max 1 µM)', 'MDA-MB-453 (Breast Carcinoma)', 0.224),
  ('CN(C)CCCOc1ccc(-c2ccc3ncc4c(c3c2)n(C2CCOCC2)c(=O)n4C)cn1 [AZD0156] + C=CCn1c(=O)c2cnc(Nc3ccc(N4CCN(C)CC4)cc3)nc2n1-c1cccc(C(C)(C)O)n1 [AZD1775] (first compound max 1 µM, partner max 1 µM)', 'MDA-MB-453 (Breast Carcinoma)', 0.192),
  ('Cc1c2c(nn1C)CSCc1cc(n(C)n1)CSc1cc(c3ccccc3c1)OCCCc1c(C(=O)O)n(C)c3c-2c(Cl)ccc13 [AZD5991] + CC1(C)CCC(CN2CCN(c3ccc(C(=O)NS(=O)(=O)c4ccc(NCC5CCOCC5)c([N+](=O)[O-])c4)c(Oc4cnc5[nH]ccc5c4)c3)CC2)=C(c2ccc(Cl)cc2)C1 [Venetoclax] (first compound max 1 µM, 7x7, partner max 1 µM)', 'MDA-MB-453 (Breast Carcinoma)', 0.346);

---

Catalogue of Bliss excess readings, one per entry.
Tested on: COLO-668 (Small Cell Lung Carcinoma)
Procedure Text: Bliss excess, mean over the matrix (fraction); higher = more synergy
Value Kind: Bliss excess

INSERT INTO assay_data (compound, measured_number) VALUES
  ('C[C@@H](c1ccc2nccn2c1)n1nnc2ncc(-c3cnn(C)c3)nc21 [Savolitinib] + CC1(C)CCC(CN2CCN(c3ccc(C(=O)NS(=O)(=O)c4ccc(NCC5CCOCC5)c([N+](=O)[O-])c4)c(Oc4cnc5[nH]ccc5c4)c3)CC2)=C(c2ccc(Cl)cc2)C1 [Venetoclax] (first compound max 1 µM, 7x7, partner max 1 µM)', -0.0624),
  ('CN(CCO)CC[C@H](CSc1ccccc1)Nc1ccc(S(=O)(=O)NC(=O)c2ccc(N3CCC([C@@H](O)c4ccccc4-c4ccc(Cl)cc4)CC3)cc2)cc1S(=O)(=O)C(F)(F)F [AZD4320] + Cc1cc2ncnn2cc1Nc1ncc2c(n1)n(C1CCOCC1)c(=O)n2C [AZD7648] (first compound max 1 µM, 7x7, partner max 10 µM)', -0.0431),
  ('CCN(CCO)CCCOc1ccc2c(Nc3cc(CC(=O)Nc4cccc(F)c4)[nH]n3)ncnc2c1 [AZD2811] + C[C@@H]1COCCN1C2=NC(=NC(=C2)C3(CC3)[S@](=N)(=O)C)C4=C5C=CNC5=NC=C4 [AZD6738] (first compound max 1 µM, 7x7, partner max 10 µM)', -0.038),
  ('COc1cc2c(cc1OCCCCCOc1cc3c(cc1OC)C(=O)N1C=C(C)C[C@H]1C=N3)N=C[C@@H]1CC(C)=CN1C2=O [SG3199] + O=C(c1cc(Cc2n[nH]c(=O)c3ccccc23)ccc1F)N1CCN(C(=O)C2CC2)CC1 [Olaparib] (first compound max 0.001 µM, 7x7, partner max 10 µM)', -0.0003),
  ('CN(CCO)CC[C@H](CSc1ccccc1)Nc1ccc(S(=O)(=O)NC(=O)c2ccc(N3CCC([C@@H](O)c4ccccc4-c4ccc(Cl)cc4)CC3)cc2)cc1S(=O)(=O)C(F)(F)F [AZD4320] + C=CCn1c(=O)c2cnc(Nc3ccc(N4CCN(C)CC4)cc3)nc2n1-c1cccc(C(C)(C)O)n1 [AZD1775] (first compound max 1 µM, partner max 1 µM)', 0.0801),
  ('Cc1c2c(nn1C)CSCc1cc(n(C)n1)CSc1cc(c3ccccc3c1)OCCCc1c(C(=O)O)n(C)c3c-2c(Cl)ccc13 [AZD5991] + Nc1ccn([C@@H]2O[C@H](CO)[C@@H](O)C2(F)F)c(=O)n1 [Gemcitabine] (first compound max 1 µM, 7x7, partner max 0.3 µM)', -0.0674),
  ('COc1cccc(OCCCN)c1-c1cc(Nc2cnc(C#N)cn2)n[nH]1 [Prexasertib] + CCc1c2c(nc3ccc(O)cc13)-c1cc3c(c(=O)n1C2)COC(=O)[C@]3(O)CC [SN-38] (first compound max 1 µM, 7x7, partner max 0.3 µM)', -0.0788),
  ('C[C@@H](Nc1cc(F)cc(F)c1)c1cc(C(=O)N(C)C)cc2c(=O)cc(N3CCOCC3)oc12 [AZD8186] + CC(=O)c1c(C)c2cnc(Nc3ccc(N4CCNCC4)cn3)nc2n(C2CCCC2)c1=O [Palbociclib] (first compound max 10 µM, 7x7, partner max 10 µM)', 0.0261),
  ('C=CCn1c(=O)c2cnc(Nc3ccc(N4CCN(C)CC4)cc3)nc2n1-c1cccc(C(C)(C)O)n1 [AZD1775] + CCc1c2c(nc3ccc(O)cc13)-c1cc3c(c(=O)n1C2)COC(=O)[C@]3(O)CC [SN-38] (first compound max 1 µM, partner max 0.3 µM)', -0.0448),
  ('CN(CCO)CC[C@H](CSc1ccccc1)Nc1ccc(S(=O)(=O)NC(=O)c2ccc(N3CCC([C@@H](O)c4ccccc4-c4ccc(Cl)cc4)CC3)cc2)cc1S(=O)(=O)C(F)(F)F [AZD4320] + Nc1ccn([C@@H]2O[C@H](CO)[C@@H](O)C2(F)F)c(=O)n1 [Gemcitabine] (first compound max 1 µM, 7x7, partner max 0.3 µM)', 0.0417),
  ('N#Cc1cnc(Nc2cc(NC[C@H]3CNCCO3)c(C(F)(F)F)cn2)cn1 [SRA737] + O=c1[nH]cc(F)c(=O)[nH]1 [5-Fluorouracil] (first compound max 10 µM, 7x7, partner max 20 µM)', 0.0106);
